Test system: HS 578T breast
Assay: NCI tumour cell line growth inhibition, 48 h
Task for the reader: assign each of the following compounds its reported GI50.

Take a look at these entries with their results.
NCCNc1ccc(NCCN)c2c1C(=O)c1c(O)ccc(O)c1C2=O: 225 nM
COc1cc(C(=O)c2cnc(-c3ccc4cc[nH]c4c3)[nH]2)cc(OC)c1OC: 46.1 nM
CCCCNP1(NCCCC)=NP(NCCCC)(NCCCC)=NP(NCCCC)(NCCCC)=NP(NCCCC)(NCCCC)=N1: 1430 nM
COC(=O)c1cc2c([nH]c3ccccc32)c(-c2nc3ccccc3cc2CO)n1: > 100000 nM
CCc1c2c(nc3ccc(OC(=O)OCc4ccc(B5OC(C)(C)C(C)(C)O5)cc4)cc13)-c1cc3c(c(=O)n1C2)COC(=O)[C@]3(O)CC: 547 nM

# next compound below
Query string: State, for HS 578T breast, measured GI50 of the compound listed here: N#Cc1ccc(O)c(C2=NCC(c3ccc(-c4ccccc4)cc3)O2)c1 (stereo unspecified)
Result string: 867 nM

###

Tested on: SF-268 CNS
Test: NCI tumour cell line growth inhibition, 48 h
Measurement kind: TGI

Worked examples follow.
Clc1ccc2c(c1)CC1C[N+]3=C(CCCCC3)C1=C2 (stereo not drawn): > 100 µM
COc1ccc(-c2nsc3c2NC(=O)CC3c2cccc(F)c2)cc1 (stereo not drawn): > 100 µM
O=C1CS(=O)c2ccccc2N1 (stereo not drawn): > 100 µM

For each entry beneath this line, provide reported TGI.
1. CCOC(=O)c1c(Br)c(-c2ccc([N+](=O)[O-])cc2)c(Br)n1C
2. O=C(N/N=C/c1cc(Cl)cc(Cl)c1[O-])c1ccccc1O.O=C(N/N=C/c1cc(Cl)cc(Cl)c1[O-])c1ccccc1O.[Cu+2]
3. O=C1c2c(c3c4ccccc4n(CCCCCCN4CCOCC4)c3c3[nH]c4ccccc4c23)C(=O)N1O
4. CCOC(=O)Nc1cc2c(c(N)n1)N=C(c1ccccc1)CN2
5. COc1c(-c2ccc(F)cc2)oc2c(CC(=O)O)cccc2c1=O

Result string:
1. > 10 µM
2. 1.61 µM
3. 39.4 µM
4. 34.8 µM
5. > 100 µM

###

Provide the recorded TGI for the entries that follow.
System: HS 578T breast
Experiment: NCI tumour cell line growth inhibition, 48 h

C/C1=C\CC[C@@]2(C)O[C@@H]2C[C@@H]2[C@H](C/C(C)=C/CC1)OC(=O)[C@]21CO1: > 100 µM

Batch lookup, TGI per entry.
1. Cc1cnc2c(c1)C(=O)N(c1ccc(Br)cc1)S2(=O)=O
2. Cc1c2c(n3c(nc4ccccc43)c1C#N)NCC2

Result string:
1: > 100 µM; 2: > 10 µM

###

System: UACC-257 melanoma
Assay: NCI tumour cell line growth inhibition, 48 h
Measurement kind: TGI

In the examples that follow, each entry is paired with its recorded TGI.
O=c1oc2c(O)c(O)cc3c(=O)oc4c(O)c(O)cc1c4c23: > 100 µM
CSc1c(S(C)=O)c2ccccc2n1C (stereo not drawn): > 100 µM
O=S1(=O)OCCOS(=O)(=O)C1(Br)Br: > 100 µM

Hey, quick one: what's TGI for each of these?
1. Cc1cc2nc3c(C#N)c4c(c(Cl)n3c2cc1C)CCC4
2. COc1cc2c(cc1OC)-c1c(c3ccc([N+](=O)[O-])cc3c(=O)n1CCCN=[N+]=[N-])C2=O
3. CC(O)(c1ccc(OCCC[N+](C)(C)C)cc1)C(C)(O)c1ccc(OCCC[N+](C)(C)C)cc1 (stereo not drawn)

Result string:
> 100 µM
> 100 µM
> 100 µM

###

So I've got a bunch of molecules here, and I need their TGI values.
Tested on: RPMI-8226 leukemia
Assay: NCI tumour cell line growth inhibition, 48 h

Known results for molecules:
O=[N+]([O-])c1ccc(C2NC(=S)NC3c4cc([N+](=O)[O-])ccc4CCCC23)cc1 (configuration not stated): > 100 µM
CC[C@H](C)C(=O)O[C@H]1CCC=C2C=C[C@H](C)[C@H](CC[C@@H]3C[C@@H](O)CC(=O)O3)[C@H]21: > 75.9 µM
COc1cc(Cn2c3ccccc3c3cc(C)cc(OC)c32)cc2c1[nH]c1ccccc12: > 25 µM

Please look at the items below and tell me TGI for each one, in order.
1. Cc1cc(=O)n2c(cc3cccccc32)n1
2. COc1cc2c(cc1OC)-c1cc3cc(OC)c(OC)cc3c(C)[n+]1CC2 (tested in a mixture with another compound)
3. O=C(OCC1CC(C2(O)CCCCC2)C(=O)O1)c1ccccc1 (configuration not stated)
4. CSc1nc(SC)c2c(C)c(Br)[nH]c2n1
5. CCCCCCCCCCCCCC(=O)NO
6. COC(=O)CCc1cc(OC)c2oc(-c3ccc(OC)c(OC)c3)c(CO)c2c1

Result string:
["> 100 µM", "> 100 µM", "> 100 µM", "> 100 µM", "> 100 µM", "> 100 µM"]

Report TGI for every entry below.
1. Cc1cc(S(=O)(=O)Nc2nnc3c(Cl)cc(C(F)(F)F)cn23)c(S)cc1Cl
2. COc1cc2cnc3c4cc(O)ccc4ccc3c2cc1OC
3. O=C(CO)CC(=O)C(=O)Nc1cccc(C(F)(F)F)c1

Result string:
1. > 100 µM
2. > 100 µM
3. > 100 µM

###

Tested on: HL-60(TB) leukemia
Test: NCI tumour cell line growth inhibition, 48 h
Measurement kind: TGI

Example entries and their recorded answers appear below.
c1ccc(N2CCN(CCCN3CCc4c([nH]c5ccccc45)C3c3cccnc3)CC2)cc1 (centres undefined): > 58.3 µM
Cc1ccc(C(CCO)CCO)nc1: > 100 µM
O=C(/C=C/c1ccc(O)c(O)c1)c1ccc(O)cc1O: 22.3 µM

For the next question, use this compound.
Query string: Provide one value: measured TGI of CCOC(=O)NC(C(F)(F)F)(C(F)(F)F)P(=O)(OCC)OCC
Result string: > 100 µM

###

Test system: HOP-92 NSCLC
Test: NCI tumour cell line growth inhibition, 48 h
Measurement kind: TGI (µM)
Give bare numbers, in µM.

Guide cases for TGI, answers given:
CCOC(=O)Nc1cc2c(c(N)n1)N=C(c1ccccc1)CN2: 34.8
[O-][N+]1=C(c2ccccc2)/C(=C2/C(c3ccccc3)=[N+]([O-])c3ccccc32)Cc2ccccc21: 32.9
O=C1c2c(c3c4ccccc4n(CCCCCCN4CCOCC4)c3c3[nH]c4ccccc4c23)C(=O)N1O: 38.3
c1cc2cc(Cc3ccc4[nH]ccc4c3)ccc2[nH]1: 34.9
Cn1c2ccccc2c2c(=O)n(CCCC(=O)NCCc3cnc[nH]3)c3c(-c4ccccc4)nnn3c21: 5.48

State the recorded TGI for every item in the following list.
1. O=C(CC1(O)C(=O)Nc2c(Cl)cc(Cl)cc21)c1ccc([N+](=O)[O-])cc1 (configuration not stated)
2. O=C(CS(=O)c1nc2ccccc2nc1-c1ccccc1)Nc1ccc(Cl)cc1 (configuration not stated)
3. Cn1c2ccccc2c(=NNc2ccc(S(=O)(=O)N=C(N)N)cc2)c2ccccc21
4. CC(=O)Oc1ccc(C)c2c1[C@H]1CC[C@]3(C)[C@@H](OC(C)=O)CC[C@H]3[C@@H]1CC2

Result string:
1. 75.5
2. 49.2
3. 36.4
4. 30.9

###

So I've got a bunch of compounds here, and I need their TGI values.
System: ACHN renal
Assay: NCI tumour cell line growth inhibition, 48 h

Study these solved cases before continuing.
O=C1NC(c2cccc3ccccc23)Nc2ccccc21 (configuration not stated): > 54.7 µM
Cc1ccc(-c2nc3ccccc3c(=O)n2NC2OC(CO)C(O)C(O)C2O)cc1 (configuration not stated): > 100 µM
Cc1c2c(n3c(nc4ccccc43)c1C#N)NCC2: > 10 µM
CCOC(=O)c1c(Br)c(-c2ccc([N+](=O)[O-])cc2)c(Br)n1C: > 10 µM
COc1cc(Cn2c3ccccc3c3cc(C)cc(OC)c32)cc2c1[nH]c1ccccc12: > 25 µM
CC1=C(C(=O)NNC(=O)c2ccccc2O)CC(C(=O)NNC(=O)c2ccccc2O)=C(C)N1: > 88.7 µM

# per-item lookup of TGI; items listed below
1. O=c1[nH]c(Br)nc2n[nH]nc12
2. C/C1=C\CC[C@@]2(C)O[C@@H]2C[C@@H]2[C@H](C/C(C)=C/CC1)OC(=O)[C@]21CO1
3. CCCC1(N2C(=O)c3ccc4c5c(ccc(c35)C2=O)N(C2(CCC)CCCCC2)C4=O)CCCCC1
4. CCOC(=O)C1=C(C)C2C3C(=O)OC(=O)C3C1(C)C1C(=O)OC(=O)C21 (configuration not stated)

Result string:
1: > 100 µM; 2: > 100 µM; 3: > 100 µM; 4: > 100 µM

For each of the compounds below, state TGI.
1. CC(O)(c1ccc(OCCC[N+](C)(C)C)cc1)C(C)(O)c1ccc(OCCC[N+](C)(C)C)cc1 (configuration not stated)
2. CCOC(=O)CN1C(=O)c2c(NC(=O)C(=O)O)cccc2S1(=O)=O
3. COc1cc2c(cc1OC)-c1cc3cc(OC)c(OC)cc3c(C)[n+]1CC2 (tested in a mixture with another compound)
4. O=C1/C=C/[C@@H](O)[C@@H]2C[C@@H](O)C[C@H]2/C=C/CCC[C@H](CCc2ccc(NC(=S)Nc3ccc4c(c3)C(=O)OC43c4ccc(O)cc4Oc4cc(O)ccc43)cc2)O1
5. COc1c(-c2ccc(F)cc2)oc2c(CC(=O)O)cccc2c1=O
6. CCOC(=O)C(CCSC)(CCSC)C(=O)OCC

Result string:
> 100 µM
> 100 µM
> 100 µM
> 100 µM
> 100 µM
> 100 µM

Query string: Given CCOC(OCC)[C@@H]1C[C@@H]2N(O[C@H](OC3CCCC3(c3ccccc3)c3ccccc3)[C@H](OC(C)=O)[C@@]2(CC)Cc2ccc(OC)c(OC)c2)O1 (some centres not stated) , respond with its TGI.
Result string: > 100 µM

Values compiled from PubChem BioAssay (NCI).
